experiment: Cytotoxicity against human HEK293 cells assessed as reduction in cell growth incubated for 20 hrs by resazurin dye-based fluorometric assay
Under this convention, Satisfied denotes CC50 at 20 h strictly below 20 µg/mL and Not satisfied denotes CC50 at 20 h at or above 20 µg/mL.

{"Mol": "CC(C)CCOc1ccccc1-c1ccccc1OCc1cn(C[C@@H](CCCNC(=N)N)NC(=O)CCc2ccccc2)nn1.Cl", "Label": "Not satisfied"}
{"Mol": "CC(C)CCOc1ccc2ccccc2c1-c1c(OCc2cn(C[C@@H](CCCNC(=N)N)NC(=O)Cc3ccccc3)nn2)ccc2ccccc12.Cl", "Label": "Satisfied"}
{"Mol": "CC(C)CCOc1ccccc1-c1ccccc1OCc1cn(C[C@@H](CCCCN)NC(=O)[C@@H](CCCNC(=N)N)n2cc(Cc3ccccc3)nn2)nn1.Cl.Cl", "Label": "Not satisfied"}
{"Mol": "CC/C(=C(\\c1ccccc1)c1ccc(OCCN(C)C)cc1)c1ccccc1", "Label": "Satisfied"}
{"Mol": "CC(C)CCOc1ccccc1-c1ccccc1OCc1cn(C[C@@H](CCCCN)NC(=O)Cc2ccccc2)nn1.Cl", "Label": "Satisfied"}
{"Mol": "CC(C)CCOc1ccccc1-c1ccccc1OCc1cn(C[C@@H](CCCCN)NC(=O)[C@@H](CCCNC(=N)N)NC(=O)Cc2ccccc2)nn1.Cl.Cl", "Label": "Not satisfied"}
{"Mol": "CC(C)CCOc1ccccc1-c1ccccc1OCc1cn(C[C@@H](CCCNC(=N)N)NC(=O)[C@@H](CCCCN)N=[N+]=[N-])nn1.Cl.Cl", "Label": "Not satisfied"}
{"Mol": "CC(C)CCOc1ccc2ccccc2c1-c1c(OCc2cn(C[C@@H](CCCCN)NC(=O)Cc3ccccc3)nn2)ccc2ccccc12.Cl", "Label": "Satisfied"}
{"Mol": "CC(C)CCOc1ccccc1-c1ccccc1OCc1cn(C[C@@H](CCCNC(=N)N)NC(=O)OCc2ccccc2)nn1.Cl", "Label": "Not satisfied"}
{"Mol": "CC(C)CCOc1ccccc1-c1ccccc1OCc1cn(C[C@@H](CCCCN)NC(=O)[C@@H](CCCNC(=N)N)NC(=O)OCC2c3ccccc3-c3ccccc32)nn1.Cl.Cl", "Label": "Not satisfied"}
{"Mol": "CC(C)CCOc1ccccc1-c1ccccc1OCc1cn(C[C@@H](CCCNC(=N)N)NC(=O)Cc2ccccc2)nn1.Cl", "Label": "Not satisfied"}
{"Mol": "CC(C)CCOc1ccccc1-c1ccccc1OCc1cn(C[C@@H](CCCCN)NC(=O)[C@@H](CCCNC(=N)N)n2cc(CC3CCCCC3)nn2)nn1.Cl.Cl", "Label": "Not satisfied"}
{"Mol": "CC(C)CCOc1ccc2ccccc2c1-c1c(OCc2cn(C[C@@H](CCCNC(=N)N)NC(=O)OCc3ccccc3)nn2)ccc2ccccc12.Cl", "Label": "Satisfied"}

* * *

experiment: Haemolytic activity in sheep erythrocytes at 50 ug/ml incubated for 2 hrs under shaking condition relative to control; type: ADME, cell-based, Ovis aries, Erythrocyte; conditions: read-out: Activity
Returns criterion met if the recorded hemolysis at 2 h, 50 ug/ml is greater than or equal to 40%, and criterion not met otherwise.

{"Mol": "CC(C)CCOc1ccccc1-c1ccccc1OCc1cn(C[C@@H](CCCCN)NC(=O)CCc2ccccc2)nn1.Cl", "Label": "criterion met"}
{"Mol": "CC(C)CCOc1ccccc1-c1ccccc1OCc1cn(C[C@@H](CCCCN)NC(=O)[C@@H](CCCNC(=N)N)n2cc(CC3CCCCC3)nn2)nn1.Cl.Cl", "Label": "criterion met"}
{"Mol": "CC(C)CCOc1ccc2ccccc2c1-c1c(OCc2cn(C[C@@H](CCCCN)NC(=O)[C@@H](CCCNC(=N)N)NC(=O)CCc3ccccc3)nn2)ccc2ccccc12.Cl.Cl", "Label": "criterion met"}
{"Mol": "CC(C)CCOc1ccccc1-c1ccccc1OCc1cn(C[C@@H](CCCCN)NC(=O)[C@@H](CCCNC(=N)N)NC(=O)Cc2ccccc2)nn1.Cl.Cl", "Label": "criterion not met"}
{"Mol": "CC(C)CCOc1ccc2ccccc2c1-c1c(OCc2cn(C[C@@H](CCCNC(=N)N)NC(=O)Cc3ccccc3)nn2)ccc2ccccc12.Cl", "Label": "criterion met"}
{"Mol": "CC(C)CCOc1ccccc1-c1ccccc1OCc1cn(C[C@@H](CCCNC(=N)N)NC(=O)[C@@H](CCCCN)n2cc(CCc3ccccc3)nn2)nn1.Cl.Cl", "Label": "criterion not met"}
